methodDescription: Volume of distribution at steady state in Sprague-Dawley rat at 1 mg/kg, iv administered as single dose by LC/MS/MS analysis
Format: ADME, organism-based
Set-up: dose 1 mg/kg, route intravenous
testSettings: in vivo, read-out: Vdss
The entries below come with measured Vd values attached.
# value in L/kg; strip the unit string

COc1cc(N2CCN(C3CCN(c4ccc(F)c5c(OC)cc(C(F)(F)F)nc45)CC3)CC2)c2ncccc2c1 :: 2.5

Per the record, COc1cc(N2CCN(C3CCN(c4ccc(F)c5cccnc45)CC3)CC2)c2ncccc2c1 has Vd of 2.6

Per the record, COc1cc(N2CCN(C3CCN(c4cccc5cccnc45)CC3)CC2)c2ncccc2c1 has Vd of 2.8

----------
methodDescription: Cmax in Sprague-Dawley rat at 3 mg/kg, po administered as single dose by LC/MS/MS analysis
Assay type: ADME, organism-based
Design: dose 3 mg/kg, route oral
testSettings: in vivo
propertyLabel: Cmax (ng/mL)
# value in ng/mL; strip the unit string

COc1cc(N2CCN(C3CCN(c4ccc(F)c5c(OC)cc(C(F)(F)F)nc45)CC3)CC2)c2ncccc2c1 :: 417
COc1cc(N2CCN(C3CCN(c4ccc(F)c5cccnc45)CC3)CC2)c2ncccc2c1 :: 247

Next, consider the following compound.
Per the record, COc1cc(N2CCN(C3CCN(c4cccc5cccnc45)CC3)CC2)c2ncccc2c1 has Cmax of 130

----------
systemTested: 5-hydroxytryptamine receptor 1A (Homo sapiens, UniProt P08908)
Sequence (P08908 whole entry): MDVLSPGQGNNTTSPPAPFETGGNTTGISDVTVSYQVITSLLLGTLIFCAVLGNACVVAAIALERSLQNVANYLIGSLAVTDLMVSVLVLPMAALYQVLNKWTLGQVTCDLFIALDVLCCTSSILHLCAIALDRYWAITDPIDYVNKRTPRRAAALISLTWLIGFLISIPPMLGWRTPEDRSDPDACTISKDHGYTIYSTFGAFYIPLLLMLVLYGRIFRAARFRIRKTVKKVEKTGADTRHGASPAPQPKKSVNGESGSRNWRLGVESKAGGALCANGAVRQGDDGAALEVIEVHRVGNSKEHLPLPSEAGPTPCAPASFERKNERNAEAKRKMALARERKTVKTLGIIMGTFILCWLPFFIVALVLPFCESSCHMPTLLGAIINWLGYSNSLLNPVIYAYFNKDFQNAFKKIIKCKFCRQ
methodDescription: biochemical
Description: Displacement of [3H]8-OH-DPAT from human 5HT1A receptor expressed in CHO cells
In plain terms, low Ki, meaning strictly below 0.6 nM, gives fulfilled, and everything else gives not fulfilled.

Lookup: Please let me know if COc1cc(N2CCN(C3CCN(c4cccc5c(OC)cc(C(F)(F)F)nc45)CC3)CC2)c2ncccc2c1 shows Ki below 0.6 nM.
Found: not fulfilled

Lookup: Please let me know if COc1cc(N2CCN(C3CCN(c4ccc(F)c5cc(F)cnc45)CC3)CC2)c2ncccc2c1 shows Ki below 0.6 nM.
Found: fulfilled

Lookup: Please let me know if COc1cc(N2CCN(C3CCN(c4cccc5cc(C)cnc45)CC3)CC2)c2ncccc2c1 shows Ki below 0.6 nM.
Found: fulfilled

Lookup: Please let me know if COc1cc(N2CCN(C3CCN(c4cccc5c(C)cc(C)nc45)CC3)CC2)c2ncccc2c1 shows Ki below 0.6 nM.
Found: not fulfilled

----------
methodDescription: in vitro
testSettings: rat, liver microsomes
Description: Half life in rat liver microsomes at 1 uM after 20 mins
The entries below come with measured half-life at 20 min, 1 µM values attached.
# value in min; strip the unit string

Example entries and their recorded answers appear below.
COc1cc(N2CCN(C3CCN(c4cccc5ccc(C(F)(F)F)nc45)CC3)CC2)c2ncccc2c1 :: 2
COc1cc(N2CCN(C3CCN(c4cccc5cc(F)cnc45)CC3)CC2)c2ncccc2c1 :: 2

Next, consider the following compound.
Per the record, COc1cc(N2CCN(C3CCN(c4cccc5c(C)ccnc45)CC3)CC2)c2ncccc2c1 has half-life at 20 min, 1 µM of 2

----------
methodDescription: in vitro
testSettings: human, liver microsomes
Description: Half life in human liver microsomes at 1 uM after 20 mins
The entries below come with measured half-life at 20 min, 1 µM values attached.

Per the record, COc1cc(N2CCN(C3CCN(c4cccc5cc(C)cnc45)CC3)CC2)c2ncccc2c1 has half-life at 20 min, 1 µM of 2 min

Per the record, COc1cc(N2CCN(C3CCN(c4cc(F)cc5cccnc45)CC3)CC2)c2ncccc2c1 has half-life at 20 min, 1 µM of 4 min

Per the record, COc1cc(N2CCN(C3CCN(c4ccc(F)c5cc(F)cnc45)CC3)CC2)c2ncccc2c1 has half-life at 20 min, 1 µM of 5 min

Per the record, COc1cc(N2CCN(C3CCN(c4cccc5c(C)cc(C)nc45)CC3)CC2)c2ncccc2c1 has half-life at 20 min, 1 µM of < 1 min

----------
systemTested: UniProt P08908
methodDescription: biochemical
The entries below come with measured pKi values attached.
Please note pKi is a logarithmic value: minus log10 of concentration in mol/L. Answer with that number alone.

Example entries and their recorded answers appear below.
COc1cc(N2CCN(C3CCN(c4cccc5c(C)ccnc45)CC3)CC2)c2ncccc2c1 :: 9.21
COc1cc(N2CCN(C3CCN(c4cccc5ccc(C)nc45)CC3)CC2)c2ncccc2c1 :: 9.27
COc1cc(N2CCN(C3CCN(c4cccc5ccc(C(F)(F)F)nc45)CC3)CC2)c2ncccc2c1 :: 8.74
COc1cc(N2CCN(C3CCN(c4ccc(F)c5ccc(C(F)(F)F)nc45)CC3)CC2)c2ncccc2c1 :: 8.44

Observed pKi on UniProt P08908, entry COc1cc(N2CCN(C3CCN(c4cc(Br)cc5cccnc45)CC3)CC2)c2ncccc2c1 , equals 9.21

Source: ChEMBL document CHEMBL1157827
